Please respond with reported MIC for every item in the list.
- Tested on: Staphylococcus aureus ATCC 25923
- procedure-summary: Antibacterial assay (CLSI), S. aureus
- Format: cell-based
- recorded-conditions: Staphylococcus aureus, ATCC25923; Inactive at >128 μg/mL
- Method: Five microorganism cultures (Methicillin resistant S. aureus DMST 20654, S. aureus ATCC 25923, S. sonnei ATCC 11060, B. subtilis ATCC 6633, and B. cereus ATCC 11778) were used. The experiments were performed at the Department of Microbiology, Faculty of Science, Khon Kaen University, Thailand. The antibacterial assay was performed as recommended by the Clinical and Laboratory Standards Institute. The standard drugs kanamycin and chloramphenicol were used as positive controls.
Please give a number only; it is taken to be in µg/mL.

// sample CC(=O)OC1CC2(C)C3CCc4cocc4C3(C)CC(OC(=O)CC(=O)O)C2C2(C)CCCC(C)(C)C12 (stereo not shown) , its MIC was 128

For this molecule ( CC(=CC(=O)OC1CC2(C)c3cocc3CCC2C2(C)CC(O)C3C(C)(C)CCCC3(C)C12)CC(=O)O (stereo not shown) ), measured MIC is 128

Note to self: MIC recorded for CC1(C)CCCC2(C)C1C(O)CC1(C)C3CCc4cocc4C3(C)CCC21 (stereo not shown) was 128

The reported value for CC(=O)OC1CC2(C)C3CCC4=C(COC4=O)C3(C)CC(OC(=O)CC(C)=CC(=O)O)C2C2(C)CCCC(C)(C)C12 (stereo not shown) in terms of MIC is 64

response.value for CC(=O)OC1CC2(C)C3CCC4=C(COC4=O)C3(C)CC(OC(=O)C=C(C)CC(=O)O)C2C2(C)CCCC(C)(C)C12 (stereo not shown) (field: MIC) = 16

The reported MIC of the molecule O=C(N[C@H](CO)[C@H](O)c1ccc([N+](=O)[O-])cc1)C(Cl)Cl [Chloramphenicol, reference compound] was 8

Reported MIC ( CC(=O)O[C@H]1C[C@]2(C)[C@H]([C@H](OC(=O)/C=C(\C)CC(=O)O)C[C@]3(C)c4cocc4CC[C@@H]23)[C@@]2(C)CCCC(C)(C)[C@H]12 ) = 16

* * *

- System: HeLa human cervical cancer
- procedure-summary: MTT anti-proliferative assay, HeLa
- Assay type: cell-based
- recorded-conditions: 72 h, Mean ± S.D. (n = 3)
measurement-name: pIC50
Answer as the number alone; pIC50 is minus log10 of concentration in mol/L.

Recorded pIC50 (compound N.N.[Cl][Pt][Cl] [cis-platin, reference compound] ): 5.19

* * *

Exercise: state measured pIC50 for each of the compounds provided.
- Test system: HT29 human colon cancer
- procedure-summary: MTT anti-proliferative assay, HT29
- Type: cell-based
- recorded-conditions: Homo sapiens, HT-29, 72 h, Mean ± S.D. (n = 3)
# pIC50 is unitless: minus log10 of the molar concentration; print number only

Reported pIC50 for CC(=O)O[C@H]1C[C@]2(C)[C@H]([C@H](OC(=O)/C=C(\C)CC(=O)O)C[C@]3(C)c4cocc4CC[C@@H]23)[C@@]2(C)CCCC(C)(C)[C@H]12 [Compound 8, Nambiscalarane] was 4.69

Note to self: pIC50 recorded for CC(=O)OC1CC2(C)C3CCc4cocc4C3(C)CC(OC(=O)CC(C)=CC(=O)O)C2C2(C)CCCC(C)(C)C12 (centres unmarked) [Compound 3, Nambiscalarane D] was 4.68

// pIC50 value for CC(=O)OC1CC2(C)C3CCc4cocc4C3(C)CC(OC(=O)CC(=O)O)C2C2(C)CCCC(C)(C)C12 (centres unmarked) [Compound 2, Nambiscalarane C] : 4.48

Please fill in: pIC50 reported for CC(=O)OC1CC2(C)C3CCC4=C(COC4=O)C3(C)CC(OC(=O)C=C(C)CC(=O)O)C2C2(C)CCCC(C)(C)C12 (centres unmarked) [Compound 5, Nambiscalarane F] = 4.26

Record CC1(C)CCCC2(C)C1C(O)CC1(C)C3CCc4cocc4C3(C)CCC21 (centres unmarked) [Compound 1, Nambiscalarane B] . Reported pIC50: 4.64

CC(=O)OC1CC2(C)C3CCC4=C(COC4=O)C3(C)CC(OC(=O)CC(C)=CC(=O)O)C2C2(C)CCCC(C)(C)C12 (centres unmarked) [Compound 6, Nambiscalarane G] has a reported pIC50 of 4.11

pIC50 recorded for this compound, CC(=CC(=O)OC1CC2(C)c3cocc3CCC2C2(C)CC(O)C3C(C)(C)CCCC3(C)C12)CC(=O)O (centres unmarked) [Compound 4, Nambiscalarane E] , is 4.71
